Assay: in vitro
Details: human, hela cells, % viability, bulk resorufin, single well
Examples of compounds with documented viability at 28.5 h, 10 µM follow.
MEASURED_ENDPOINT: viability at 28.5 h, 10 µM (%)

                    structure_smiles_string  assay_value
0                   CCOc1ccccc1CN1CCN(C)CC1           91
1  O=C1NC(=O)C(=Cc2ccc([N+](=O)[O-])o2)C(=O)N1          106
2  O=C1NC(=O)N(Cc2ccccc2)C(=O)/C1=N\Nc1ccc([N+](=O)[O-])cc1         94.5
3  O=C(CCC1C(=O)NC(=O)NC1=O)Nc1ccc(Oc2ccc(F)cc2)cc1           88
4  O=C1NC(=O)C(CCc2ccncc2)(c2ccccc2)C(=O)N1         96.9
